Test: yeast display, Sf9 membrane polyspecificity reagent, FACS + sequencing; frameworks hold sequencing errors
QUANTITY NAME: polyreactivity (PSR sort gate)

{"PRIMARY SEQUENCE": "QVQLVESGGGLVQEGGSLRLSCAASGSTFSWYTMGWYRQAPGKERELVAAITRGGTTYYADSVKGRFTISRDNAKNTVYLQMISLKPEDTAVYYCAARYSRDVRMGYWGQGTQVTVSS", "QUANTITY NAME": "polyreactivity (PSR sort gate)", "RESULT": "high polyreactivity"}
{"PRIMARY SEQUENCE": "QVQLVESGGGLVQAGRSHRLTCAASGSTDSNAMGWYRQAPGKERELVAAISGTGSRTYYADSVKGRFTISRDNAKNSVYLEMNSLKPEDTAVYYCAASPDVSFRRFSLVVSGDYWGQGNQVTVSS", "QUANTITY NAME": "polyreactivity (PSR sort gate)", "RESULT": "high polyreactivity"}

* * *

Assay: yeast display, Sf9 membrane polyspecificity reagent, FACS + sequencing; frameworks hold sequencing errors

{"PRIMARY SEQUENCE": "QVQLVESAGGLVQAGGSLRLSCAASGFTFSSYVMGWYRQAPGKARELVAAISSSGARTYYADSVKGRFTISRDNAKNTVYLQMNSLKPEDNADYYCAAENSPRPYDYWGQGTQVTVSS", "polyreactivity (PSR sort gate)": "high polyreactivity"}
{"PRIMARY SEQUENCE": "QVQLVESGGGLVQAGGSLRLSCAASGSTFQVYGMGWYRQAPGKERELGAAISRSGGRTYYADSVKGRFTISRDNAKNTVYLQMNSLKPEDTAVYYCNAPISYYDEYYYWGQGTQVTVSS", "polyreactivity (PSR sort gate)": "high polyreactivity"}

* * *

Assay: yeast display, Sf9 membrane polyspecificity reagent, FACS + sequencing; frameworks hold sequencing errors
QUANTITY NAME: polyreactivity (PSR sort gate)

As a guide, the following entries are already answered.
{"PRIMARY SEQUENCE": "QVQLVESGGGLVQAGGSLRLSCAASGRTIGKNAMGWYRQAPGKERELVAAISWRGGSTRYADSVKGRFTISRDNAKNTVYLQMNSLKPEDTAVYYCAVRFLTYWHGSYWYDYWGQGTQVTVSS", "polyreactivity (PSR sort gate)": "high polyreactivity"}
{"PRIMARY SEQUENCE": "QVQLVESGGGLVQAGGSLRLSCAASGFTFRQYAMGWYRQAPGKERELVAAISRSGSRTYYADSVKGRFTISRDNAKNTVYLQMNSLKPEDTAVYYCNAVFSTITGEYYWGQGTQVTVSS", "polyreactivity (PSR sort gate)": "high polyreactivity"}
{"PRIMARY SEQUENCE": "QVQLVESGGGLLQAGGSLRLSCAASGNIFGWYAMGWYRQAPGKERELVAAISSGGRTNYADSVKGRFTISRDNAKNTVYLQMNSLKPEDTAVYYCATPLQQLYGYWGQGTQVSVSS", "polyreactivity (PSR sort gate)": "low polyreactivity"}
{"PRIMARY SEQUENCE": "QVQLVESGGGLVQAGGSLRLICAASGIILGHKAMGWYRQAPGKERELVATITTRGGSTYYADSVKGRFTISRDNAKNTVYLQMNSLKPEDTAVFYCAARPYKSLHYWYDYWGQGTQVTVSS", "polyreactivity (PSR sort gate)": "low polyreactivity"}

Problem: Assign polyreactivity (PSR sort gate) to the following record: "QVQLVESGGGLVQAGGSLRLICAASGRTFATYAMGWYRQAPGKERELVAAISNSGGRTNYADSVKGRFTISRDNAKNTVYLLMNSLKPEDTAVFYCATKAYTSGRYYWGQGTQVTVSS"
Solution: high polyreactivity
